# System: Mus musculus
# protocol-summary: Antidepressant activity in Swiss albino mouse assessed as duration of immobility at 50 mg/kg, po dosed 1 hr before test measured after 6 mins by tail suspension test (reference value: 183 sec)
Here the recorded Time is given for each entry.
readout-label: Time (s)

molecule: Cc1nc2ccccc2n1Cc1nnc(Nc2ccc([N+](=O)[O-])cc2)s1
readout-label: Time
unit-tag: s
value: 174
//
molecule: Cc1nc2ccccc2n1CC(=O)NNC(=O)CCC(=O)c1ccc(Oc2ccccc2)cc1
readout-label: Time
unit-tag: s
value: 135
//
molecule: CNCCC(Oc1ccc(C(F)(F)F)cc1)c1ccccc1 (stereo unspecified) [FLUOXETINE]
readout-label: Time
unit-tag: s
value: 153
//
molecule: Cc1nc2ccccc2n1CC(=O)NNC(=O)C(=O)c1c[nH]c2ccccc12
readout-label: Time
unit-tag: s
value: 105
//
molecule: Cc1nc2ccccc2n1Cc1nnc(Nc2ccccc2F)s1
readout-label: Time
unit-tag: s
value: 120
//
molecule: Cc1ccccc1CC(=O)NNC(=O)Cn1c(C)nc2ccccc21
readout-label: Time
unit-tag: s
value: 168
